Test: calcein-AM signal in unstimulated myeloma cells – cell-based, calcein-AM fluorescence, 48 h, PK04 Diversity Set, profiling panel (AID 1166);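 note: cells grown under basal conditions without added stimulus; test concentration not given here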
Details: RPMI8226 myeloma viability, higher = more signal
Reported z-score values for a set of compounds
Please give the numeric answer without any surrounding text.

Guide cases for z-score, answers given:
>  <compound>
Cc1ccc(S[C@]2(C(=O)NCc3ccccc3)CC(=O)N(Cc3ccccc3C(F)(F)F)[C@@H]2c2ccc(CO)cc2)cc1

>  <z-score>
1.36

$$$$
>  <compound>
COC(=O)[C@@]1(Cc2ccccc2)[C@H]2c3cc(C(=O)N(C)C)n(Cc4ccc(C(F)(F)F)nc4)c3C[C@H]2CN1C(=O)c1ccccc1

>  <z-score>
-0.559

$$$$

# get_value(readout='z-score', item= COc1ccc([Si](C)(C)[C@@H]2[C@@H](CC(=O)N(CCO)Cc3ccccc3)O[C@]3(C(=O)N(Cc4ccc(N5C(=O)c6cccc7cccc5c67)cc4)c4ccccc43)[C@H]2C)cc1 )
-3.52

Given the compound CC1=C([C@H](O)CCc2ccccc2)[C@H](CO)n2c(=O)n(-c3ccccc3)c(=O)n2C1 , what is its reported z-score?
0.874

Please look up its z-score: C=C(CCCC)/C(=C/C[C@H](OC(C)=O)c1cccc(OCCO)c1)c1cnc2ccccc2c1
-1.26

// lookup z-score for CC(C)C(=C=CC[C@H](O)c1ccccc1OCCO)C[C@H](O)COCc1ccccc1
-1.15

Would you kindly share the measured z-score for [N-]=[N+]=Nc1ccccc1C[C@@]1(C(=O)NCC(O)CO)N=C(c2ccc(OCCCO)cc2)O[C@@H]1c1ccccc1 (stereo not given in full) ?
-0.342

Endpoint output: z-score of COC(=O)[C@@]1(Cc2ccc(OC)cc2)[C@H]2c3cc(C(=O)N4CCCC4)n(Cc4ccc(Cl)c(C(F)(F)F)c4)c3C[C@H]2CN1C(=O)c1ccccc1 . Value?
-0.741

Item under review: COC(=O)C(CC#Cc1ccc2c(c1)[C@]1(C(=O)N2)[C@H](C(=O)N2CCc3cc(OC)c(OC)cc3C2)[C@H]2C(=O)O[C@H](c3ccccc3)[C@H](c3ccccc3)N2[C@@H]1c1ccccc1OCCO)C(=O)OC . Reported z-score?
0.546

Given the compound COCCCNC(=O)[C@@]1(Sc2ccc(C)cc2)CC(=O)N(Cc2ccccc2C(F)(F)F)[C@@H]1c1ccc(CO)cc1I , what is its reported z-score?
-2.36

Fill in the blank: the reported z-score of C=C(C)[C@@H]1CC=C(C(O)C2C=CC3C(=O)N(c4ccccc4)C(=O)C3N2Nc2ccc([N+](=O)[O-])cc2)CC1 (stereo not given in full) is ____.
-0.493

Can you share its z-score? I mean this compound: COCCOC(=O)N1C(=O)[C@@]2(c3ccccc31)[C@H](c1ccc(O)cc1)N1[C@H](c3ccccc3)[C@H](c3ccccc3)OC(=O)[C@H]1[C@@H]2C(=O)N1CCCCCCC1
-1.26

Consider the compound shown here: C[N+](C)(C)CCCCNC(=O)[C@H]1C[C@H]2C(=O)N[C@@H](Cc3ccccc3)C(=O)N2[C@H]1c1cccc(OCCO)c1 What is its recorded z-score?
-0.748

Tell me the measured z-score of O=C1[C@H]2C=C(I)[C@H](C[C@@H]2c2ccccc2)[C@@]12CO2 , please.
-3

Look up z-score: O=C(N1CCOCC1)[C@@]1(Cc2ccccc2)COC(c2ccc(OCCCO)cc2)=N1
-0.907

Ref: PubChem BioAssay
